Hello, the source for this data is patent US6723747B2, in case you need it.

measured-endpoint: melting point

Worked cases, melting point given:
compound="C=Cc1cc2c(c3ccc(O)cc13)OCc1cc(O)ccc1-2 [Example 1o]" recorded_measurement="> 220 °C"
compound="N#Cc1cc2c(c3ccc(O)c(Cl)c13)OCc1cc(O)ccc1-2 [Example 1f]" recorded_measurement="> 250 °C"
compound="Oc1ccc2c(c1)COc1c-2cc(-c2ccsc2)c2cc(O)ccc12 [Example 1q]" recorded_measurement="179 to 182 °C"
compound="COc1cc2c(c3ccc(O)cc13)OCc1cc(O)ccc1-2 [Example 1l]" recorded_measurement="224 °C (dec.)"
compound="Cc1cc2c(c3ccc(O)cc13)OCc1cc(O)ccc1-2 [Example 1n]" recorded_measurement="220 to 224 °C (dec.)"
compound="CCc1cc2c(c3ccc(O)cc13)OCc1cc(O)ccc1-2 [Example 1p]" recorded_measurement="184 to 192 °C"
compound="Oc1ccc2c(c1)COc1c-2cc(Br)c2cc(O)ccc12 [Example 1h]" recorded_measurement="178 to 180 °C (dec.)"
compound="Oc1ccc2c3c(ccc2c1)-c1cc(F)c(O)cc1CO3 [Example 1b]" recorded_measurement="230 to 231 °C (dec.)"

// below: melting point requested for another compound
Q. For the compound Oc1ccc2c(c1)COc1c-2ccc2c(O)cccc12 [Example 1u, 6H-dibenzo[c,h]chromene-1,8-diol] , what melting point is on record?
A. 213 to 214 °C
